# measuredTarget: T1, human CD22-ECD-His protein (human, UniProt P20273 20-687)
# T1 construct: Made in house in HEK293E; also called hCD22-ECD-His; recombinant human CD22-ECD His protein; not shown: His tag
# T1 sequence: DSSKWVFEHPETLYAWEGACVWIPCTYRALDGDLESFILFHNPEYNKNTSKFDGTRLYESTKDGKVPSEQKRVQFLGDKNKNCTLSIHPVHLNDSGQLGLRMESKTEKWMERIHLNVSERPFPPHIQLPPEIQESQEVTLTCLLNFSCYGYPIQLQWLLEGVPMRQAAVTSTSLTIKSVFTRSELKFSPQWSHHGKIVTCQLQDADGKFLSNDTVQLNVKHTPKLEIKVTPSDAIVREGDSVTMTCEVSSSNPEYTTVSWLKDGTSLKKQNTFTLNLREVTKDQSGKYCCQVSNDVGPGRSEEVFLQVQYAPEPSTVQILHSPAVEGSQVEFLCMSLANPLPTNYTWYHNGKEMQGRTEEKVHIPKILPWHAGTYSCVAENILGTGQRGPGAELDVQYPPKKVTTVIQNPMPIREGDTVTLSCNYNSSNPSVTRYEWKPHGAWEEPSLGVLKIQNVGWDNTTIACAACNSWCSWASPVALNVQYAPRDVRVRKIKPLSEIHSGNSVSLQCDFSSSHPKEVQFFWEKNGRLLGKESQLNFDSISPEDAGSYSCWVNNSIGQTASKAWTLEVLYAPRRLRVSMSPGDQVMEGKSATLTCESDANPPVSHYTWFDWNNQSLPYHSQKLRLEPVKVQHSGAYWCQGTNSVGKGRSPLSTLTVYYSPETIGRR
# assay: ELISA, Ab 0.0001 nM
# key: entry, value: OD450

As a guide, the following entries are already answered.
{"columns": ["binder", "OD450"],
 "data": [
  ["F2.173.9 (antibody, human IgG1, lambda, V domains shown, Human-murine chimeric IgG1, lambda) VH: EVQLVESGGDLVKPGESLKLSCEASGFTFSNYAMSWVRQTPDRRLEWVATISSIGSFTYYSDSVKGRFTISRDNVKSTLHLQMNNLKSGDTAIYFCARLGVYFDSWGQGTTLTVSS VL: QLVLTQSSSASFSLGASAKLTCTLSSQHSTYTIEWYQQQPHKPPKFVMEIKKDGSHYTGDGIPDRFSGSSSGADRYLSISNIQPEDETIYICGVSDMIKDQFVYVFGGGTKVTVLG", "0.32 OD450"],
  ["F1.224.1 (antibody, human IgG1, kappa, V domains shown, Human-murine chimeric IgG1, kappa) VH: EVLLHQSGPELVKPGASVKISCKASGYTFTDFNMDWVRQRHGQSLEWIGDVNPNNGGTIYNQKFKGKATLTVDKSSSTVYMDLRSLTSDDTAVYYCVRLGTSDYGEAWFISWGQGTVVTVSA VL: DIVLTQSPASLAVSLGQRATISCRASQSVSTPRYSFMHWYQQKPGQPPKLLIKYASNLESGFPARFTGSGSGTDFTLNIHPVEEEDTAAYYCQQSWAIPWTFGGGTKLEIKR", "0.34 OD450"]
]}

# ---- query binder ----
OD450 for F1.7.6 (antibody, human IgG1, kappa, V domains shown, Human-murine chimeric IgG1, kappa) VH: EIQLQQSGPELVKPGTSVKVSCKASGYDFTRYNMYWVKQSHGKSLEWIGYIDPYNGDTRYNQKFKGKATLTVDKSSSTAYMHLNSLTSEDSAVYYCEAIYYDMEGYALDYWGQGTSVTVSS VL: DIVMSQSPSSLAVSVGEKVTMSCKSSQSLLYSNNQKNYLAWYQQKPGQSPKKLIYWASTRESGVPDRLTGSGSGTDFTLTISSVTAEDLAVYYCQQFYSYPWTFGGGTKLEIKR ?
0.34 OD450
